- SYSTEM: human P2Y14 receptor (Homo sapiens, UniProt Q15391)
- Sequence (Q15391 whole entry): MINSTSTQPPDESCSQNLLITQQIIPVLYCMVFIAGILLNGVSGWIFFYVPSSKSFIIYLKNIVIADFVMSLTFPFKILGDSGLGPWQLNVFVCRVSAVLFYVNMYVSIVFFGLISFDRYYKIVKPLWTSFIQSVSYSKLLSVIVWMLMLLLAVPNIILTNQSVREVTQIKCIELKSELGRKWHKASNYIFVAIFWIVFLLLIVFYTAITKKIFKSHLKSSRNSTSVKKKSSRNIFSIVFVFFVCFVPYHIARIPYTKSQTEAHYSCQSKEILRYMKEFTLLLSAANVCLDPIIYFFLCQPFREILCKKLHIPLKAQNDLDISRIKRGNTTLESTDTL
- TEST DETAILS: Stimulation of PLC
Assign EC50 to each entry below.

{"COMPOUND": "O=c1ccn([C@@]23C[C@H]2[C@H](COP(=O)(O)OP(=O)(O)O[C@H]2O[C@H](CO)[C@@H](O)[C@H](O)[C@H]2O)[C@@H](O)[C@H]3O)c(=O)[nH]1 [Compound 27]", "SYSTEM": "human P2Y14 receptor (Homo sapiens, UniProt Q15391)", "MEASUREMENT KIND": "EC50", "RESULT": "> 10 µM"}

Continue with the next compound.
# input compound: O=c1ccn([C@H]2[C@H](O)[C@H](O)[C@@]3(COP(=O)(O)OP(=O)(O)O[C@H]4O[C@H](CO)[C@@H](O)[C@H](O)[C@H]4O)C[C@H]23)c(=O)[nH]1 [Compound 28] ; wanted: its EC50
> 10 µM
